MEASURED_ON: hTLR8 (human Toll-like receptor 8) (Homo sapiens, UniProt Q9NR97)
Construct: host or cells: HEK-Blue hTLR8 (HEK293-derived reporter cells)
Sequence (Q9NR97 27-1041): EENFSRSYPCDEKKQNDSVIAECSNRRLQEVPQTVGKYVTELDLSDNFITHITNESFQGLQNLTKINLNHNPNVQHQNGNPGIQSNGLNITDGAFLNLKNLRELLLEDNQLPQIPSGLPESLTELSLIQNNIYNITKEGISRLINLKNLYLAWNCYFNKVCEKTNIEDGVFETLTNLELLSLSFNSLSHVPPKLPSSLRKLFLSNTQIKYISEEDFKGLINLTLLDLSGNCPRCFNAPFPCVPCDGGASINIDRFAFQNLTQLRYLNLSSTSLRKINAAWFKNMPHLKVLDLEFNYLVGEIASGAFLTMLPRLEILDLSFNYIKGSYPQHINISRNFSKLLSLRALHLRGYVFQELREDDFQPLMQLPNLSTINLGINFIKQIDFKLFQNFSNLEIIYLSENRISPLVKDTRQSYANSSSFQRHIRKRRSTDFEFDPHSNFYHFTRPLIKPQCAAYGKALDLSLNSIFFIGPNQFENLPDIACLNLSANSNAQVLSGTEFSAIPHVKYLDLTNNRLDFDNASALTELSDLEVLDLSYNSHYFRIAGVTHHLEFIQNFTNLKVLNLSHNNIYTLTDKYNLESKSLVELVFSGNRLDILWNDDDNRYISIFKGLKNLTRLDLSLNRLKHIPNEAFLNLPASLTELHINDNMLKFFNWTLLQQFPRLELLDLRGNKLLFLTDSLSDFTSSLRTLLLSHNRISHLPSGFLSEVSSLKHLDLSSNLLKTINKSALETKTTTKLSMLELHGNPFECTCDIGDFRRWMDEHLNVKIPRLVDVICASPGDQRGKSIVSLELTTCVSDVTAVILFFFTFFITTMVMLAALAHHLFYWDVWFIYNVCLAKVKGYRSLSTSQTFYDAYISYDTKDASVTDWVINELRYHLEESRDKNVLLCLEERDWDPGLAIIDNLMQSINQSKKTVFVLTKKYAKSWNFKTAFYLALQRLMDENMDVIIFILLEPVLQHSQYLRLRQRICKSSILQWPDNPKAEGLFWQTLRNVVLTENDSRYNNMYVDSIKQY
RUN_DESCRIPTION: HEK-Blue hTLR8 reporter assay (QUANTI-Blue, OD650)
Format: cell-based
CONDITION_LABEL: HEK-Blue hTLR8 cells, 24 h; read-out: Reporter assay TLR8 EC50
METRIC: EC50 (nM)

TEST_SMILES	EC50, nM
CCCN(OCc1ccc(N)cc1)C(=O)C1=Cc2ccc(-c3cncc(Cl)c3)cc2N=C(N)C1	6.6
CCCN(OCc1ccc(N)cc1)C(=O)C1=Cc2ccc(-c3ccc(C#N)nc3)cc2N=C(N)C1	5.6

----------
Entries and their measured EC50 follow.
MEASURED_ON: hTLR8 (human Toll-like receptor 8) (Homo sapiens, UniProt Q9NR97)
Construct: host or cells: HEK-Blue hTLR8 (HEK293-derived reporter cells)
RUN_DESCRIPTION: HEK-Blue hTLR8 reporter assay (QUANTI-Blue, OD650)
Format: cell-based
CONDITION_LABEL: HEK-Blue hTLR8 cells, 24 h; read-out: Reporter assay TLR8 EC50

Example compounds with recorded EC50:
COMPOUND	MEASURED_ON	EC50
CCCN(OCc1ccc(N)cc1)C(=O)C1=Cc2ccc(-c3cncc(S(C)(=O)=O)c3)cc2N=C(N)C1 [Compound 56]	hTLR8 (human Toll-like receptor 8) (Homo sapiens, UniProt Q9NR97)	< 1.5 nM
CCCN(OCc1ccc(N)cc1)C(=O)C1=Cc2ccc(C(=O)N3CCOCC3)cc2N=C(N)C1 [Compound 39]	hTLR8 (human Toll-like receptor 8) (Homo sapiens, UniProt Q9NR97)	2.8 nM
CCCN(OCc1ccc(N)cc1)C(=O)C1=Cc2ccc(-c3ccc4c(c3)C(=O)OC4)cc2N=C(N)C1 [Compound 43]	hTLR8 (human Toll-like receptor 8) (Homo sapiens, UniProt Q9NR97)	< 1.5 nM

We now examine a further compound.
Request the reported EC50 associated with CCCN(OCc1ccc(N)cc1)C(=O)C1=Cc2ccc(-c3cncc(CO)c3)cc2N=C(N)C1 [Compound 15] < 1.5 nM

----------
Test system: IFN-α production in human PBMCs
RUN_DESCRIPTION: Induction of IFN-α in human PBMCs (ELISA)
Assay type: cell-based
CONDITION_LABEL: PBMC, 24 h, serial 4-fold dilutions, class symbols, read-out: PBMC assay IFNa EC50
Experimental: In this example, the induction activity of the compounds of the present application on human PBMCs for TNF-α and IFN-α production was assessed in human PBMCs (human peripheral blood mononuclear cells). […] The cells were resuspended in a culture medium and counted. […] The plate was washed 4 times, then the detection antibody was added. […] Plate reading: The reading at wavelength 450 nm was detected by an M2e instrument within 10 min after the termination. […]
// EC50 lookup, one value per entry

COMPOUND	EC50
CCCN(OCc1ccc(N)cc1)C(=O)C1=Cc2ccc(-c3ccc(C(=O)N4CC[C@@H](O)C4)cc3)cc2N=C(N)C1 [Compound 42]	> 500 nM
CCCN(OCc1ccc(N)cc1)C(=O)C1=Cc2ccc(C(=O)NC3CCOCC3)cc2N=C(N)C1 [Compound 84]	50 to 500 nM

Which EC50 value is on record for CCCN(OCc1ccc(N)cc1)C(=O)C1=Cc2ccc(C(=O)NC(C)(C)c3ccccc3)cc2N=C(N)C1 [Compound 76] ? 10 to 50 nM

Follow-up item: CCCN(OCc1ccc(N)cc1)C(=O)C1=Cc2ccc(C(=O)Nc3ccc4c(c3)CNC4)cc2N=C(N)C1 [Compound 90] 50 to 500 nM

Please give the result for CCCN(OCc1ccc(N)cc1)C(=O)C1=Cc2ccc(C(=O)N3CCN(C)CC3)cc2N=C(N)C1 [Compound 93] too. 50 to 500 nM

One more compound: CCCN(OCc1ccc(N)cc1)C(=O)C1=Cc2ccc(C(=O)N3CCC(O)C3)cc2N=C(N)C1 (stereo not shown) [Compound 46] 50 to 500 nM

And CCCN(OCc1ccc(N)cc1)C(=O)C1=Cc2ccc(C(=O)N[C@H]3C[C@@H]3c3ccccc3)cc2N=C(N)C1 [Compound 78] ? ≤ 10 nM

----------
List of EC50 values.
MEASURED_ON: hTLR7 (human Toll-like receptor 7) (Homo sapiens, UniProt Q9NYK1)
Construct: host or cells: HEK-Blue hTLR7 (HEK293-derived reporter cells)
Sequence (Q9NYK1 27-1049): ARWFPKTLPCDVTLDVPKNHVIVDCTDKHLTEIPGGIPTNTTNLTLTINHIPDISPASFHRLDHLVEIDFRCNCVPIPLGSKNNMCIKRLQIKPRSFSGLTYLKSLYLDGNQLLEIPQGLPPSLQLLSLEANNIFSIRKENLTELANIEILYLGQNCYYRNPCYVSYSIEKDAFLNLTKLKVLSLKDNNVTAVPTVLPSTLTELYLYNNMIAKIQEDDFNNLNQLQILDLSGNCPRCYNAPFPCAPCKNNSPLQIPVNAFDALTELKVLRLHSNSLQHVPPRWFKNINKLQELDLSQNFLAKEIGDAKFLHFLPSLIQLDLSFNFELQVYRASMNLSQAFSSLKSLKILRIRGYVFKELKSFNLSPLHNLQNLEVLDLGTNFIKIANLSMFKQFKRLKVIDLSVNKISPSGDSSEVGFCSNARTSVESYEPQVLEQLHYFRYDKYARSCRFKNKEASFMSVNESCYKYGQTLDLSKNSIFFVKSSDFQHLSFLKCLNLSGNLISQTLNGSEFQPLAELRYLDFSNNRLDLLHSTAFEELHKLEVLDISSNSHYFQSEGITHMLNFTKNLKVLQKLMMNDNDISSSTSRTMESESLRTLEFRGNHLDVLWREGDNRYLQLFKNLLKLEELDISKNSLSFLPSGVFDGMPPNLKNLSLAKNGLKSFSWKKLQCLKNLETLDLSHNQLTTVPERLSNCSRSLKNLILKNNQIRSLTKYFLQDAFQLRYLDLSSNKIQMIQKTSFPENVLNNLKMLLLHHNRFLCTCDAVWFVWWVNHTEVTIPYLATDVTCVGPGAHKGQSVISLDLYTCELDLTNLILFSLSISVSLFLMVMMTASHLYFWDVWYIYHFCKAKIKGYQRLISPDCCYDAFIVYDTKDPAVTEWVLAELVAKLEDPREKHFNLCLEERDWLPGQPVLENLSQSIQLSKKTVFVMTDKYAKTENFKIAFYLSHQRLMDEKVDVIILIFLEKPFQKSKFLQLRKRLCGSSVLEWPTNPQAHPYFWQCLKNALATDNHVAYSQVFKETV
RUN_DESCRIPTION: HEK-Blue hTLR7 reporter assay (QUANTI-Blue, OD650)
Type: cell-based
CONDITION_LABEL: HEK-Blue hTLR7 cells, 24 h; class symbols; read-out: Reporter assay TLR7 EC50
Method: In this example, the agonistic activity of the compounds of the present application on hTLR7 (human Toll-like receptor 7) and hTLR8 (human Toll-like receptor 8) was assessed; the induction activity of the compounds on human PBMCs for TNF-α and IFN-α production was assessed in human PBMCs (human peripheral blood mononuclear cells). […] Compound activity data analysis: The OD650 values were analyzed by GraphPad Prism software and fitted to give dose-response curves of the compounds. […]

Illustrative cases are given below, each with its answer.
COMPOUND	OBSERVED_VALUE
CCCN(OCc1ccc(N)cc1)C(=O)C1=Cc2ccc(C(=O)N3CCC(O)C3)cc2N=C(N)C1 (centres unmarked)	> 1 µM
CCCN(OCc1ccc(N)cc1)C(=O)C1=Cc2ccc(-c3cccc(S(=O)(=O)N4CCNCC4)c3)cc2N=C(N)C1	0.1 to 1 µM
CCCN(OCc1ccc(N)cc1)C(=O)C1=Cc2ccc(C(=O)Nc3ccc4c(c3)CNC4)cc2N=C(N)C1	> 1 µM
CCCN(OCc1ccc(N)cc1)C(=O)C1=Cc2ccc(-c3cncc(S(=O)(=O)N4CCC(O)CC4)c3)cc2N=C(N)C1	0.1 to 1 µM

Under hTLR7 (human Toll-like receptor 7) (Homo sapiens, UniProt Q9NYK1): EC50 value of CCCN(OCc1ccc(N)cc1)C(=O)C1=Cc2ccc(C(=O)Nc3ccc4cn[nH]c4c3)cc2N=C(N)C1 ? > 1 µM

Also CCCN(OCc1ccc(N)cc1)C(=O)C1=Cc2ccc(C(=O)Nc3ncco3)cc2N=C(N)C1 ? > 1 µM

Another compound to look at: CCCN(OCc1ccc(N)cc1)C(=O)C1=Cc2ccc(-c3cncc(C(=O)O)c3)cc2N=C(N)C1 > 1 µM

Also CCCN(OCc1ccc(N)cc1)C(=O)C1=Cc2ccc(C(=O)N3CCN(c4ccccc4)CC3)cc2N=C(N)C1 , if possible. > 1 µM

And CCCN(OCc1ccc(N)cc1)C(=O)C1=Cc2ccc(-c3cccc(S(=O)(=O)N4CCOCC4)c3)cc2N=C(N)C1 ? 0.1 to 1 µM

----------
MEASURED_ON: hTLR7 (human Toll-like receptor 7) (Homo sapiens)
Construct: host or cells: HEK-Blue hTLR7 (HEK293-derived reporter cells)
RUN_DESCRIPTION: HEK-Blue hTLR7 reporter assay (QUANTI-Blue, OD650)
Assay type: cell-based
CONDITION_LABEL: HEK-Blue hTLR7 cells, 24 h; read-out: Reporter assay TLR7 EC50
pEC50: −log10 of the molar value.
METRIC: pEC50

COMPOUND	pEC50
CCCN(OCc1ccc(N)cc1)C(=O)C1=Cc2ccc(-c3cccc(S(=O)(=O)N4CC(O)C4)c3)cc2N=C(N)C1 [Compound 41]	5.65
CCCN(OCc1ccc(N)cc1)C(=O)C1=Cc2ccc(-c3ccc4c(c3)C(=O)OC4)cc2N=C(N)C1 [Compound 43]	6.75
CCCN(OCc1ccc(N)cc1)C(=O)C1=Cc2ccc(-c3cncc(C#N)c3)cc2N=C(N)C1 [Compound 50]	6.56

(A) CCCN(OCc1ccc(N)cc1)C(=O)C1=Cc2ccc(-c3cncc(CN)c3)cc2N=C(N)C1 [Compound 54]
(B) CCCN(OCc1ccc(N)cc1)C(=O)C1=Cc2ccc(-c3cncc(S(N)(=O)=O)c3)cc2N=C(N)C1 [Compound 36]
Given A and B , report the one with the higher recorded pEC50. // output: label of the selected item A
(A: 6.28, B: 5.97)

----------
MEASURED_ON: hTLR8 (human Toll-like receptor 8) (Homo sapiens)
Construct: host or cells: HEK-Blue hTLR8 (HEK293-derived reporter cells)
RUN_DESCRIPTION: HEK-Blue hTLR8 reporter assay (QUANTI-Blue, OD650)
Assay type: cell-based
CONDITION_LABEL: HEK-Blue hTLR8 cells, 24 h; class symbols; read-out: Reporter assay TLR8 EC50
pEC50: −log10 of the molar value.
Catalogue of pEC50 values

Worked cases, answers included:
MOLECULE	OBSERVED_VALUE
CCCN(OCc1ccc(N)cc1)C(=O)C1=Cc2ccc(C(=O)N3CCC(O)C3)cc2N=C(N)C1 (stereo not shown)	7.00 to 8.00
CCCN(OCc1ccc(N)cc1)C(=O)C1=Cc2ccc(-c3cncc([S+](C)[O-])c3)cc2N=C(N)C1 (stereo not shown)	≥ 8.00
CCCN(OCc1ccc(N)cc1)C(=O)C1=Cc2ccc(C(=O)N[C@H]3C[C@@H]3c3ccccc3)cc2N=C(N)C1	≥ 8.00
CCCN(OCc1ccc(N)cc1)C(=O)C1=Cc2ccc(-c3ccc(C(=O)N4CC[C@@H](O)C4)cc3)cc2N=C(N)C1	7.00 to 8.00
CCCN(OCc1ccc(N)cc1)C(=O)C1=Cc2ccc(C(=O)N3CC[C@@H](O)C3)cc2N=C(N)C1 [Compound 46A]	7.00 to 8.00

Entry under review: CCCN(OCc1ccc(N)cc1)C(=O)C1=Cc2ccc(-c3cccc(S(=O)(=O)NCCO)c3)cc2N=C(N)C1 . Reported pEC50? ≥ 8.00

Queued: CCCN(OCc1ccc(N)cc1)C(=O)C1=Cc2ccc(C(=O)N3CCN(C)CC3)cc2N=C(N)C1 ≥ 8.00
